All figures here come from BindingDB's records for patent US20250326790.

In this section, each of the compounds is paired with its reported Kd.
target: Hypoxia-inducible factor 1-alpha [228-298] (Homo sapiens); construct: 228-298; assay: Assessment of HIF-1α and 2α Binding Activity in In Vitro Assays
Sequence (Q16665 whole entry): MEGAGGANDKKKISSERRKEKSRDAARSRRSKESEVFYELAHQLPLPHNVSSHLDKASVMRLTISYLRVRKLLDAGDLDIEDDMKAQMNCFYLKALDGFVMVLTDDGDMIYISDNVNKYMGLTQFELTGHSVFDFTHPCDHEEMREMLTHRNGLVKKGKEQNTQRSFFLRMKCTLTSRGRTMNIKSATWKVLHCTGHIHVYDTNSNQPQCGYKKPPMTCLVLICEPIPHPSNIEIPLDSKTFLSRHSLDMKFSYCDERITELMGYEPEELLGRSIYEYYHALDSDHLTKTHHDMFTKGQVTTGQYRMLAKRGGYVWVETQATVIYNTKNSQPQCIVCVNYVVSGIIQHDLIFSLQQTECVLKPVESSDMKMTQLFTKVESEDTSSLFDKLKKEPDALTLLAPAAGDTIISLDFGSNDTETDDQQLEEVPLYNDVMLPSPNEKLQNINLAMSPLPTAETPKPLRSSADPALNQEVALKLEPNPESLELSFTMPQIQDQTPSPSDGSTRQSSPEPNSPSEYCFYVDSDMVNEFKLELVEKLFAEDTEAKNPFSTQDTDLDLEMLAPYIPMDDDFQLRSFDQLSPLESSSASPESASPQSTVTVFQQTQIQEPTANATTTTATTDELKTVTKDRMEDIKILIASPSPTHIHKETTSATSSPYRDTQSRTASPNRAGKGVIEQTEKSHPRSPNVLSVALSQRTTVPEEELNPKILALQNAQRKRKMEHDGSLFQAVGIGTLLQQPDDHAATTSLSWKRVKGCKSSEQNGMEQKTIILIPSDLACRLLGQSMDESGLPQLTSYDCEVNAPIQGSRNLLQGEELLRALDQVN
Where a SMILES comes first, the peptide text is derived from it. [ ]: non-standard residue; d: D form. The star is where a group is joined. Phe(4-I) = N[C@@H](Cc1ccc(I)cc1)C(=O)O; hLeu = CC(C)CC[C@H](N)C(=O)O; Isobutyryl = CC(C)C(=O)*
quantity.kind: Kd

1. CC(C)CC[C@H](NC(=O)C(C)C)C(=O)N[C@@H](Cc1ccc(I)cc1)C(=O)N[C@@H](CS)C(N)=O [US20250326790, Example 1] (Isobutyryl-[hLeu]-[Phe(4-I)]-Cys-NH2) ... > 40 µM
2. CC(C)CC[C@H](NS(=O)(=O)c1ccc(Cl)s1)C(=O)N[C@@H](Cc1ccc(I)cc1)C(=O)N[C@@H](CS)C(=O)NCCCCCCN ... > 100 µM
